Test: Solubility assessment under saturation conditions in simulated gastrointestinal media
Details: FaSSGF (fasted-state simulated gastric fluid), pH 1.6, fassgf or other biorelevant, thermodynamic from solid
VALUE_KIND: solubility at 1 h (µg/mL)
Write it as a number; the unit µg/mL goes unstated.

Exam item: Report solubility at 1 h for O=c1c(O)c(-c2ccc(O)c(O)c2)oc2cc(O)cc(O)c12 [Quercetin, 3,3′,4′,5,7-pentahydroxylflavone] please.
Marked response: 20.8
